Exercise: state measured GI50 for each of the molecules provided.
test system: LXFL 529; experiment: NCI tumour cell line growth inhibition, 48 h
Activity calls are given as the source filed them. Cut-off read from the data, not from the text of the source: active = GI50 up to about 1.1 µM and inactive = higher.

// below: answered molecules
- molecule: "COc1ccc2ccccc2c1CN1CCOCCOCCN(Cc2c(OC)ccc3ccccc23)CCOCCOCC1"
  attribute measured: "GI50"
  result: "> 89.9 µM (inactive)"
- molecule: "Cc1ccc(/C=C2\\CCCCC2=O)cc1"
  attribute measured: "GI50"
  result: "94.6 µM (inactive)"
- molecule: "CC(C)=CC(=O)Cc1nc2ccccc2[nH]c1=O"
  attribute measured: "GI50"
  result: "> 100 µM (inactive)"
- molecule: "C#CCC1(C(=O)OCC)C(=O)c2ccccc2N(C)C1=O (stereo not given)"
  attribute measured: "GI50"
  result: "> 100 µM (inactive)"

Turning now to a further molecule:
Problem: Suppose we examine the molecule COC1=NCc2ccccc2-c2ccccc21 ; what GI50 value has been reported?
Solution: > 10 µM (inactive)

---

Hi there, I'd appreciate the recorded GI50 for every entry that follows.
tested on: KM12; assay: NCI tumour cell line growth inhibition, 48 h
Activity calls are given as the source filed them. Rule as the data show it: active = GI50 up to about 1.1 µM and inactive = higher.

Use these answered entries as a reference point.
- compound: "COC(=O)C1Cc2c([nH]c3ccccc23)C(c2cccc(O)c2)N1 (stereo not given)"
  target desc: "KM12"
  attribute measured: "GI50"
  result: "32.1 µM (inactive)"
- compound: "Cc1cc(-c2ccc(C(=O)C(Cl)(Cl)Cl)[nH]2)on1"
  target desc: "KM12"
  attribute measured: "GI50"
  result: "12.2 µM (inactive)"
- compound: "C=C(N=[N+]=[N-])c1cn(C2CC(O)C(CO)O2)c(=O)[nH]c1=O (stereo not given)"
  target desc: "KM12"
  attribute measured: "GI50"
  result: "> 100 µM (inactive)"
- compound: "COC(=O)/C=C1\\SC2(O\\C1=N/c1ccccc1)C1CC3CC(C1)CC2C3 (stereo not given)"
  target desc: "KM12"
  attribute measured: "GI50"
  result: "> 100 µM (inactive)"
- compound: "CC(C)(Cc1ccccc1)N1C(=O)N1C(C)(C)Cc1ccccc1"
  target desc: "KM12"
  attribute measured: "GI50"
  result: "> 100 µM (inactive)"
- compound: "COC(=O)NNC(=O)OC.COC(=O)Nc1ccccc1NC(=O)OC.COC(=O)Oc1nn(C(=O)OC)c(=O)c2ccccc12"
  target desc: "KM12"
  attribute measured: "GI50"
  result: "> 100 µM (inactive)"
- compound: "O=C(O)Cc1ccc(/N=N/c2c(O)c(C(=O)O)cc3ccccc23)cc1"
  target desc: "KM12"
  attribute measured: "GI50"
  result: "> 100 µM (inactive)"
- compound: "CN1CCCCCC(=N\\O)/C(=N/O)CCCCC1"
  target desc: "KM12"
  attribute measured: "GI50"
  result: "> 100 µM (inactive)"

Dear reader, for each entry below, please note its GI50.
1. Cc1cn(C2C=CC(COP(=O)(OCc3ccc([N+](=O)[O-])o3)N(C)CCCCCl)O2)c(=O)[nH]c1=O (stereo not given)
2. NC(=S)N/N=C1\C(=O)N(CCc2ccccc2)C(=O)C1C(=O)NCCc1ccccc1 (stereo not given)

Solution:
6.68 µM (inactive)
> 100 µM (inactive)

---

Assign GI50 to each entry below.
tested on: MDA-MB-435; assay: NCI tumour cell line growth inhibition, 48 h
Activity calls are given as the source filed them. Cut-off read from the data, not from the text of the source: active = GI50 up to about 1.1 µM and inactive = higher.

The following compounds have reported results that may help.
- compound: "CC(C)(C)OC(=O)N/C(C=O)=C\\C1CCCCC1"
  GI50: "20 µM (inactive)"
- compound: "O=Cc1cn(CCCCCn2cc(C=O)c3ccccc32)c2ccccc12"
  GI50: "> 100 µM (inactive)"
- compound: "CC(C)[Si](OC1=CCC[C@H]2NC(=O)[C@@H](Cc3ccccc3)[C@@]12C)(C(C)C)C(C)C"
  GI50: "4.04 µM (inactive)"
- compound: "O=c1c2cc([N+](=O)[O-])ccc2n2n1CCCCC2"
  GI50: "> 100 µM (inactive)"
- compound: "CCOC(=O)c1nc2c3c(ncn2n1)Oc1c(c(-c2ccccc2)nn1-c1ccccc1)C3c1ccc(Cl)cc1 (stereo unspecified)"
  GI50: "> 100 µM (inactive)"
- compound: "Oc1ccc2c(c1)c1c(n2CCN2CCOCC2)-c2ccccc2CC1"
  GI50: "> 10 µM (inactive)"

// input: 7 compounds below; output: GI50 for each
1. COc1ccc(NS(=O)(=O)c2ccc(NC(NC(=O)CC(C)C)(C(F)(F)F)C(F)(F)F)cc2)nn1
2. CC[C@@]1(O)C(=O)OCc2c1cc1n(c2=O)Cc2c-1nc1ccccc1c2/C=N\NC(=O)C(N)Cc1c[nH]c2ccccc12 (stereo partly specified)
3. COc1ccc2c(c1)/C(=C\c1cccc(/C=C3/C(=O)Nc4ccc(OC)cc43)n1)C(=O)N2
4. CCCCCc1cc2cc3c(c(O)c2c(=O)[nH]1)C1(CCC3)C(=O)c2c(O)ccc(O)c2C1=O
5. COc1cc(OC)cc(C(=O)CC(=O)c2cc(OC)cc(OC)c2)c1
6. COc1cccc(/C=N/n2c(-c3ccccc3)n[nH]c2=O)c1
7. Nc1cnc2c(c1)c(=O)nc1n2CCS1

Solution:
> 100 µM (inactive)
1.05 µM (active)
1.17 µM (inactive)
> 100 µM (inactive)
87.5 µM (inactive)
> 100 µM (inactive)
> 100 µM (inactive)

Field: GI50. Fill in for each record below.
1. COc1ccc2c(c1)[n+]([O-])c(C#N)c(N1CCN(c3ccc([N+](=O)[O-])cc3)CC1)[n+]2[O-]
2. N[C@H](Cc1ccc2oc3cc(=O)c4ccccc4c-3nc2c1)C(=O)O
3. CNC(=O)CCNC(=O)CCC(=O)N(C)C
4. O/N=C1/C2CC3CC1(c1ccccc1)CC(/C3=N/O)/C2=N\O (stereo unspecified)
5. COC(=O)/C=C/c1ccc(OP(=O)(O)O)c(OC)c1
6. COc1ccc(CCNC(=O)CCc2ccccc2CO)cc1OC
7. CCOC(=O)C(CS)NC(=O)CCCCCCCC(=O)O (stereo unspecified)

Solution:
1. 5.13 µM (inactive)
2. 15.5 µM (inactive)
3. > 100 µM (inactive)
4. > 100 µM (inactive)
5. > 100 µM (inactive)
6. > 100 µM (inactive)
7. > 100 µM (inactive)

Problem: Any idea what its GI50 is? The compound is CC1(C(O)c2ccccc2)CN(C(C)(C)C)C(=O)/C1=C\Sc1ccccc1 (stereo unspecified)
Solution: 30.1 µM (inactive)

---

system: MOLT-4; experiment: NCI tumour cell line growth inhibition, 48 h
The source made the active and inactive calls. Cut-off read from the data, not from the text of the source: active = GI50 up to about 1.1 µM and inactive = higher.
attribute measured: GI50

Example entries and their recorded answers appear below.
- molecule: "COC(=O)C1c2c(c3ccccc3n2C(=O)OC)CCN2CCC1C(S(=O)(=O)c1ccccc1)C2=O (stereo unspecified)"
  GI50: "40.5 µM (inactive)"
- molecule: "O=c1[nH]/c(=C/c2cccs2)c(=O)[nH]/c1=C/c1ccc(OCc2ccccc2)cn1"
  GI50: "0.033 µM (active)"
- molecule: "O=[N+]([O-])c1ccc(COc2cccc3cccnc23)cc1"
  GI50: "4.98 µM (inactive)"
- molecule: "CCOC(=O)C(CS)NC(=O)CCCCCCCC(=O)O (stereo unspecified)"
  GI50: "> 100 µM (inactive)"
- molecule: "CCOC(=O)C1CCCCN1CCc1c[nH]c2ccccc12 (stereo unspecified)"
  GI50: "25.1 µM (inactive)"

// moving on: another record for GI50
Problem: Item under review: COc1cc2c(cc1O)C1C(O)C(O)C=C3CCN(C2)C31 (stereo unspecified) . Reported GI50?
Solution: 3.15 µM (inactive)

---

test system: SK-OV-3; test: NCI tumour cell line growth inhibition, 48 h
The source made the active and inactive calls. Cut-off read from the data, not from the text of the source: active = GI50 up to about 1.1 µM and inactive = higher.
Response enum: class 1 = active, class 0 = inactive

Answered cases to consult:
- molecule: "COC(=O)[C@H](Cc1ccccc1)NC(=O)N(CCN(CCC#N)C(=O)N[C@H](C(=O)OC)C(C)C)c1ccccc1"
  qualitative label: "class 0"
- molecule: "O=c1[nH]nc(-c2ccccc2)c2[nH]c(-c3ccccc3)cc12"
  qualitative label: "class 0"
- molecule: "O=C1C(c2c(O)[nH]c3ccc(Br)cc23)=Nc2ccccc21"
  qualitative label: "class 0"

Problem: How did this test come out for COc1ccc2cc3[n+](cc2c1OC)CCc1cc2c(cc1-3)OCO2 ?
Solution: class 0

Problem: Can you check C[C@@H]1C[C@H]2CC[C@H](O2)[C@H](C)C(=O)O[C@@H](C)C[C@@H]2CC[C@@H](O2)[C@@H](C)C(=O)O[C@H](C)C[C@H]2CC[C@H](O2)[C@H](C)C(=O)O[C@@H](C)C[C@@H]2CC[C@@H](O2)[C@@H](C)C(=O)O1 next?
Solution: class 1

Problem: Try this molecule too: Cc1cc2c(cn1)C(=O)OCC2
Solution: class 0

Problem: Same thing, different molecule: CC(C)(C)OC(=O)n1cc(C2CNC(=O)C23CCC(=O)N3Cc2ccccc2)c2ccccc21 (stereo not drawn)
Solution: class 0

Problem: Please do the same for COc1ccc(C(=O)C#Cc2cnc(OC)nc2OC)cc1 as well.
Solution: class 0

Problem: Then what about the molecule Fc1cc(F)c(F)c(S)c1F ?
Solution: class 0

Problem: Cc1c[nH]c(C(=O)O)c1-c1ccc2c(-c3ccccc3)nc3ccccc3n12 , same question.
Solution: class 0

Problem: Okay, and O=C(/C=C/c1ccc([N+](=O)[O-])cc1)c1ccc(NCc2nc3ccccc3[nH]2)cc1 ?
Solution: class 0

Problem: Same thing, different molecule: Cc1cn(C2C=CC(COP(=O)(OCc3ccc([N+](=O)[O-])o3)N(C)CCCCCl)O2)c(=O)[nH]c1=O (stereo not drawn)
Solution: class 0

Problem: Repeat for the following molecule: COc1ccc2[nH]c3c(C)c4cc[n+](C)cc4c(C)c3c2c1
Solution: class 0
